Tested on: E. coli DH5α cells
Test: Penetration efficiency of TAMRA-labeled CPPs, electroporation-based method, flow cytometry
Assay type: cell-based, Escherichia coli
Conditions: electrocompetent E. coli DH5α, 5 μg TAMRA-CPP, electroporation 1.8 kV, 20 mM Tris-HCl pH 7.5, 1 h, replicate 2
Where no end group is shown, it is not given here.
readout: Cell penetration efficiency (TAMRA fluorescence), Electrooration - Tris buffer (A.U.)
Field format: number, assumed A.U., no unit text.

Reference set (3 entries):
ppTG1 (GLFKALLKLLKSLWKLLLKA; also: TAMRA label, position not given here) [CPP 16, TAMRA-labeled CPP of the 98-CPP library, one of five used to evaluate delivery methods]; 307.97
Penetratin (RQIKIWFPNRRMKWKK; also: TAMRA label, site not given here) [CPP 17, TAMRA-labeled CPP of the 98-CPP library, one of five used to evaluate delivery methods]; 585.819
R9-TAT (GRRRRRRRRRPPQ; also: TAMRA label, site not given here) [CPP 14, TAMRA-labeled CPP of the 98-CPP library, one of five used to evaluate delivery methods]; 2400.94

Please look at the following substance next.
Input: Give E. coli DH5α cells Cell penetration efficiency (TAMRA fluorescence), Electrooration - Tris buffer for Rev(34-50) (TRQARRNRRRRWRERQR; also: TAMRA label, site not given here) [CPP 15, TAMRA-labeled CPP of the 98-CPP library, one of five used to evaluate delivery methods]
Output: 1626.5
